- Tested Target: Jun bZIP K258A;Fos bZIP K148A (human;human, UniProt P05412;P01100 252-315;137-200, K258A|K148A)
- Sequence (P05412 252-315 K258A, chain 1 of 2): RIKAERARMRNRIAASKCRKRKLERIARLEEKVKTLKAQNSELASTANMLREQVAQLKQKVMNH
- Sequence (P01100 137-200 K148A, chain 2 of 2): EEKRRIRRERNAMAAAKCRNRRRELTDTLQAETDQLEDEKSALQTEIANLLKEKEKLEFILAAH
- Measurement Description: ITC
pKd: −log10 of the molar value.
Quantity Measured: pKd

Binder	Recorded Number
TRE duplex 15-mer (dsDNA) DNA 1: CGCGTGACTCACCCC DNA 2: GGGGTGAGTCACGCG	6.18
